assay: Toxicity liver stage against HepG2, at 10uM; type: cell-based; parameters: test concentration 10 uM, cell line HepG2-A16-CD81EGFP; conditions: human, HepG2-A16-CD81EGFP cells; read-out: INHIBITION
Readings of cytotoxicity at 10 µM for the listed molecules
I only need the number, in %, no unit after it.

Solved entries:
COc1cc2c(cc1CN1CCC3(CCCN(C)C3=O)C1)OCCO2 (stereo not drawn) :: 6.33
COc1nccnc1N1CCC2(CC1)[C@H](O)C[C@@H]2OCCN(C)C :: 4.56
CC(C)n1ccnc1CN1CCCN(C(=O)CC2CCCO2)CC1 (stereo not drawn) :: -12.8
CC(C)(C)n1cc(CNC2CCN(C(=O)c3ccoc3)CC2)cn1 :: 6.35
Cc1ccc(C2CSCCN2C(=O)c2ccoc2C)o1 (stereo not drawn) :: 13.8
CCOCC(=O)N1CC(=O)Nc2cc(Br)ccc21 :: 8.09
CCn1nc2c(cc1=O)CN(Cc1nc(CCOC)no1)CC2 :: -9.24
COCCC1CN(c2nc(-c3ccccc3)nc3c2CCNC3)CCO1 (stereo not drawn) :: -2.98
O=C(c1ccc(C2CCCO2)s1)N1CCOCC1 (stereo not drawn) :: 10.3
c1ccc(CN2CCN3C[C@H](Oc4cncnc4)C[C@H]3C2)nc1 :: -99.8

Q. # query: cytotoxicity at 10 µM of entry COCCCC1CCCCN1S(=O)(=O)c1cccc(C#N)c1 (stereo not drawn)
A. -133

Q. Cool, now CC(C)NC(=O)NCc1ccc(C(=O)NC(C)Cn2cccn2)cc1 (stereo not drawn)
A. -1.46

Q. Cool, now `Cc1cc(C(F)(F)F)cc(=O)n1Cc1nc(C(C)C)no1`
A. 0.9

* * *

experiment: Toxicity liver stage against HepG2, at 10uM; assay type: cell-based; parameters: test concentration 10 uM, cell line HepG2-A16-CD81EGFP; details: human, HepG2-A16-CD81EGFP cells; read-out: INHIBITION
Readings of cytotoxicity at 10 µM for the listed compounds
I only need the number, in %, no unit after it.

Solved entries:
O=C(c1cccc(OC2CCCC2)c1)N1CCCC(n2cncn2)C1 (stereo not drawn) :: -10.3
CC(C)(C)CNC(=O)CNC(=O)C1CC1 :: -1.15

Q. # query: cytotoxicity at 10 µM of entry CCC(O)CN1CCN(C(=O)c2cccc(CC#N)c2)CC1 (stereo not drawn)
A. -11.6

Q. Cool, now `Cc1cc(NC(=O)NCc2ccncc2)ccc1OC(C)C`
A. -8.36

Q. Cool, now `CN(C)c1nc2c(c(N3CCC4(CC3)CNC(=O)C4)n1)CCCC2`
A. 0.995

Q. Cool, now CC(CS(C)(=O)=O)N(C(=O)Nc1cc(F)ccc1Cl)C1CC1 (stereo not drawn)
A. -4.15

Q. Cool, now COC1(CNC(=O)NCc2ccccc2)CCSC1 (stereo not drawn)
A. -2.42

Q. Cool, now Cc1ccsc1CN1CCCC(CNC(=O)c2ccc(N)nc2)C1 (stereo not drawn)
A. -2.25

Q. Cool, now COC(=O)c1ccc(N2CCN(CC(=O)NC(N)=O)C(C)C2)cc1 (stereo not drawn)
A. -4.54

Q. Cool, now `COC(=O)CNC(=O)CSCc1nc(O)c2cc(C)sc2n1`
A. 1.45

Q. Cool, now `CCn1cc(Br)c(C(=O)NCc2cnn(C)c2)n1`
A. -11.9

Q. Cool, now `CCOCCN1CCN(C=C2NN=C(c3occc3C)O2)CC1`
A. -50.4

Q. Cool, now COc1ccc(C2Nc3ccccc3C3=NCCCN32)cc1OC (stereo not drawn)
A. 6.05

Q. Cool, now `O=C(c1ccc[nH]1)N1C[C@@H]2CC[C@H]1CN(c1ncccn1)C2`
A. -7.12

Q. Cool, now Cc1noc(CS(=O)(=O)CC(=O)NC(C)c2ccccc2)n1 (stereo not drawn)
A. 9.81

Q. Cool, now Cc1ccc2c(c1)OCCCC2NC1CCN(C)CC1 (stereo not drawn)
A. 10.4

* * *

assay: Toxicity liver stage against HepG2, at 10uM; format: cell-based; design: test concentration 10 uM, cell line HepG2-A16-CD81EGFP; conditions: human, HepG2-A16-CD81EGFP cells; read-out: INHIBITION
Test Readout: cytotoxicity at 10 µM (%)
I only need the number, in %, no unit after it.

CC1CN(C(=O)C2(c3ccc(F)cc3F)CCOCC2)CCO1 (centres undefined) :: -4.84
COc1ccnc(N2CCN(CC(=O)N3CCOC(C)C3)CC2)n1 (centres undefined) :: -5.4
Cc1ccoc1C(=O)NC1CCN(CC(=O)N(C)c2ccccc2)CC1 :: -2.93

Q. # query: cytotoxicity at 10 µM of entry CC(C(=O)NCc1ccnc(N2CCN(C)CC2)c1)n1cccn1 (centres undefined)
A. -10.2

Q. Cool, now `O=C(N[C@@H]1CC[C@@H](n2ccnc2)[C@@H]1O)c1cc2c(s1)CCC2`
A. -12.7

Q. Cool, now `CCCS(=O)(=O)N1CC[C@H]2OCC[C@@]2(c2nnc(C)o2)C1`
A. 8.43

Q. Cool, now O=C(Cc1ccsc1)N1CCCC2(COCCN(CC3CC3)C2)C1 (centres undefined)
A. -127

Q. Cool, now CN(Cc1nc(N)c2ccccc2n1)C1CCCN(c2cccnn2)C1 (centres undefined)
A. -12.2

Q. Cool, now COc1ccc(C2CN(c3cc(C)ncn3)CCN2C(C)=O)cc1 (centres undefined)
A. 0.23

* * *

assay: Toxicity liver stage against HepG2, at 10uM; type: cell-based; design: test concentration 10 uM, cell line HepG2-A16-CD81EGFP; conditions: human, HepG2-A16-CD81EGFP cells; read-out: INHIBITION
Test Readout: cytotoxicity at 10 µM (%)
I only need the number, in %, no unit after it.

Solved entries:
CC(C)c1n[nH]c(C2CN(Cc3ncc[nH]3)CCO2)n1 (configuration not stated) :: 1.95
CN(Cc1ccsc1)C(=O)Nc1cccnc1N1CCCC1 :: -4.37
CN(CC(=O)NC(Cc1ccsc1)c1cccnc1)Cc1cccnc1 (configuration not stated) :: -4.04
CCc1c(O)nc(SCC(=O)N(CC)CC)n(C(C)CC)c1=O (configuration not stated) :: -6.65
O=C(NCc1c(F)cccc1Cl)c1cc(CN2CCCC(O)C2)on1 (configuration not stated) :: -44.9

Q. # query: cytotoxicity at 10 µM of entry `CCN(CC)CCNS(=O)(=O)c1cccc(CSC)c1`
A. -7.99

Q. Cool, now `Cc1nc(C)c(C(=O)OCCNc2ncccc2C#N)s1`
A. -7.32

Q. Cool, now CNC(=O)C(NC(=O)c1ccn(C)c(=O)c1)c1ccccc1 (configuration not stated)
A. 4.73

Q. Cool, now COc1cccc(S(=O)(=O)CCN2CCCC2c2ccc[nH]2)c1 (configuration not stated)
A. -3.89

* * *

test: Toxicity liver stage against HepG2, at 10uM; type: cell-based; design: test concentration 10 uM, cell line HepG2-A16-CD81EGFP; settings: human, HepG2-A16-CD81EGFP cells; read-out: INHIBITION
Test Readout: cytotoxicity at 10 µM (%)
I only need the number, in %, no unit after it.

Q. # query: cytotoxicity at 10 µM of entry `C1CC(N2C[C@@H]3COC[C@]3(COCC3CCOCC3)C2)C1`
A. -111

Q. Cool, now `O=C(CC1CC1)N[C@@H]1CN(Cc2ccc(F)cc2)C[C@@H]2CCCO[C@@H]21`
A. 14.9

Q. Cool, now `CN1[C@H](CN2CCCC2)C[C@@H]2CN(C(=O)c3ccsc3)CC[C@@H]21`
A. 0.847

Q. Cool, now CN1CC2(CNCCN(C(=O)Nc3ccccc3)C2)CC1=O (stereo not drawn)
A. 1.26

* * *

assay: Toxicity liver stage against HepG2, at 10uM; assay type: cell-based; design: test concentration 10 uM, cell line HepG2-A16-CD81EGFP; details: human, HepG2-A16-CD81EGFP cells; read-out: INHIBITION
Test Readout: cytotoxicity at 10 µM (%)
I only need the number, in %, no unit after it.

Solved entries:
O=C(CNC(=O)Nc1cccc(Cl)c1SC(F)F)NC1CC1 :: 0.797
Cn1cc(CCCNS(=O)(=O)N2CCCC2c2ccco2)cn1 (stereo unspecified) :: 9.38

Okay, next one:
Q. # query: cytotoxicity at 10 µM of entry `Cn1cccc1C(=O)N1CC[C@H]2C[C@@H](c3ccncn3)O[C@@H]2C1`
A. 0.77

* * *

experiment: Toxicity liver stage against HepG2, at 10uM; format: cell-based; design: test concentration 10 uM, cell line HepG2-A16-CD81EGFP; conditions: human, HepG2-A16-CD81EGFP cells; read-out: INHIBITION
Readings of cytotoxicity at 10 µM for the listed compounds

Solved entries:
O=C(NCc1cccnc1N1CCCC(O)C1)c1ccc2[nH]nnc2c1 (stereo unspecified) :: 11.4%
CCO[C@@H]1CO[C@@]2(CCCN(S(=O)(=O)c3cccnc3)C2)C1 :: -0.156%
Fc1ccccc1CN1CCCN(c2ccc3cc[nH]c3n2)CC1 :: -15.2%

Q. # query: cytotoxicity at 10 µM of entry `CCN(CC)CCNC(=O)c1ccn(COc2cc(C)cc(C)c2)n1`
A. 4.36%

Q. Cool, now `Cc1occc1C(=O)N1CC[C@@H](N2CCOCC2)[C@@H]1Cc1ccccc1`
A. -4.09%

Q. Cool, now CS(=O)(=O)NC1CC2(CCN(CCF)CC2)Oc2ccccc21 (stereo unspecified)
A. -2.68%

Q. Cool, now `Cn1cc(C(=O)NCc2ccc(N3CCCC3)nc2)ccc1=O`
A. -3.72%

Q. Cool, now CS(=O)(=O)NCCCN1CCCC1Cc1ccccc1 (stereo unspecified)
A. -11.7%
